# residual kinase activity, PIM1 values compiled below
- study system: PIM1 (Homo sapiens, UniProt P11309)
- assay method text: Kinase profiling PIM1
- Type: biochemical
- measurement context: 100 micromolar inhibitor concentration; 100 is no change

compound	study system	residual kinase activity, PIM1
O=C(Nc1nc2ccc(C(F)(F)F)cc2s1)c1ccccc1 [Compound 03-99]	PIM1 (Homo sapiens, UniProt P11309)	78
O=C(Nc1nc2ccc(O)cc2s1)c1ccccn1 [Compound 03-12]	PIM1 (Homo sapiens, UniProt P11309)	51
O=C(Nc1nc2cc(O)ccc2s1)c1cccnc1 [Compound 03-33]	PIM1 (Homo sapiens, UniProt P11309)	25
N#Cc1ccc2nc(NC(=O)c3ccccc3)sc2c1 [Compound 03-106]	PIM1 (Homo sapiens, UniProt P11309)	32
CC(=O)Nc1nc2ccc(F)cc2s1 [Compound 03-94]	PIM1 (Homo sapiens, UniProt P11309)	40

====

- study system: SRPK1 (Homo sapiens, UniProt Q96SB4)
- Sequence (Q96SB4 whole entry, species assumed): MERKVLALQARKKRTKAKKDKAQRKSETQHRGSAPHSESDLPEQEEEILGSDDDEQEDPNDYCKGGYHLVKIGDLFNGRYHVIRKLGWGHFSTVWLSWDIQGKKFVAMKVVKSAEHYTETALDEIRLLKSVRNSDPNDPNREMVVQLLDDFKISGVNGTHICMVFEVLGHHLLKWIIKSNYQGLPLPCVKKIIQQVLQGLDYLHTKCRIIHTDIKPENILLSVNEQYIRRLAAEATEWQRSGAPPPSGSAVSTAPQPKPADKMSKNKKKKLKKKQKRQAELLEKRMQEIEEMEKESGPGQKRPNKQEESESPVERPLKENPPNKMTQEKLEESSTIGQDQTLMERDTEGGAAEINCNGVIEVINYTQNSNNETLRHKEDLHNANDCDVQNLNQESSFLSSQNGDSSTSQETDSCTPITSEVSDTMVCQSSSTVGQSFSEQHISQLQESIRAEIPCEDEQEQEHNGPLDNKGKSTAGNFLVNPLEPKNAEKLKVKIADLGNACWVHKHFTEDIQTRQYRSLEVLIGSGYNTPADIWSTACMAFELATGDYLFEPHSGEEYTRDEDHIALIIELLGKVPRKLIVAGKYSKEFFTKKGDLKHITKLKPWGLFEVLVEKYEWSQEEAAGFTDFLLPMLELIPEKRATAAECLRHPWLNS
- assay method text: Kinase profiling SRPK1
- Type: biochemical
- measurement context: 100 micromolar inhibitor concentration; 100 is no change
measure: residual kinase activity, SRPK1

smiles input	assay result
N#Cc1ccc2nc(NC(=O)c3ccccc3)sc2c1	7
O=C(Nc1nc2cc(O)ccc2s1)c1ccccn1	57
CC(=O)Nc1nc2ccccc2s1	59
O=C(Nc1nc2cc(O)ccc2s1)c1ccccc1	10
COC(=O)c1cccc(C(=O)Nc2nc3cc(OC)ccc3s2)c1	68
O=C(Nc1nc2ccc(O)cc2s1)c1cccnc1	16
CC(=O)Nc1nc2cc(C)ccc2s1	73
O=C(Nc1nc2ccc(O)cc2s1)c1ccccc1	3
COC(=O)c1cccc(C(=O)Nc2nc3ccc(F)cc3s2)c1	55
CC(=O)Nc1nc2ccc(F)cc2s1	75

====

- study system: UniProt P23443
- Sequence (P23443 whole entry, species assumed): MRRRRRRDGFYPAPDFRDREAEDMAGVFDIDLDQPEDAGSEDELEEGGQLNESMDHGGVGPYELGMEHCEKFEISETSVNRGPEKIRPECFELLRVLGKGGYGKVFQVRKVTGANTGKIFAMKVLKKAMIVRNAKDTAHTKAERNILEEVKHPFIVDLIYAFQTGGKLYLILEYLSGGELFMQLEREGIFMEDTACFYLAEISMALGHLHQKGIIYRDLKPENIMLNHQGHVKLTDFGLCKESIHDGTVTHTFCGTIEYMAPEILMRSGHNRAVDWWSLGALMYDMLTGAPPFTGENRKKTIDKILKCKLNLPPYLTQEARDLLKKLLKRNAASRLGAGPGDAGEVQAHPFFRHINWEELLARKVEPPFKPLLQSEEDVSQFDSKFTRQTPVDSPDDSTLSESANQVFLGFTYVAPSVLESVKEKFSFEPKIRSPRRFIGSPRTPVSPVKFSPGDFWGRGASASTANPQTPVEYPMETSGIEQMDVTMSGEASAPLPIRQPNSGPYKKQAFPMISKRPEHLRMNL
- assay method text: Kinase profiling S6K1
- Format: biochemical
- measurement context: 100 micromolar inhibitor concentration; 100 is no change
Cut-off 80 on residual kinase activity, S6K1, inclusive. At or above means Y; below means N.

compound	study system	class label
CC(=O)Nc1ccc(C(=O)Nc2nc3cc(O)ccc3s2)cc1 [MS:LY-2-87]	UniProt P23443	N
CC(=O)Nc1nc2cc(C)ccc2s1 [Compound 03-76]	UniProt P23443	N
CC(=O)Nc1ccc(C(=O)Nc2nc3ccc(O)cc3s2)cc1 [Compound 03-74]	UniProt P23443	N
CC(=O)Nc1nc2ccccc2s1 [Compound 03-32]	UniProt P23443	Y
COC(=O)c1cccc(C(=O)Nc2nc3ccc(F)cc3s2)c1 [Compound 03-110]	UniProt P23443	Y
O=C(Nc1nc2ccc(O)cc2s1)c1cccnc1 [Compound 08-44]	UniProt P23443	N
O=C(Nc1nc2ccc(O)cc2s1)c1ccccc1 [Compound 03-60]	UniProt P23443	N
COc1ccc2sc(NC(=O)c3ccccc3)nc2c1 [Compound 03-95]	UniProt P23443	N
O=C(Nc1nc2cc(O)ccc2s1)c1ccncc1 [Compound 03-11]	UniProt P23443	Y
O=C(Nc1nc2cc(O)ccc2s1)c1cccnc1 [Compound 03-33]	UniProt P23443	N
COc1ccc2sc(NC(=O)c3cccc(NC(C)=O)c3)nc2c1 [MS:LY-2-85]	UniProt P23443	N
COc1ccc2nc(NC(=O)c3ccccc3)sc2c1 [Compound 03-98]	UniProt P23443	N
COC(=O)c1cccc(C(=O)Nc2nc3cc(OC)ccc3s2)c1 [Compound 03-108]	UniProt P23443	Y
CC(=O)Nc1cccc(C(=O)Nc2nc3ccc(O)cc3s2)c1 [Compound 03-58]	UniProt P23443	N
O=C(Nc1nc2cc(O)ccc2s1)c1ccccn1 [Compound 03-13]	UniProt P23443	N

====

# remaining activity at 100 µM values compiled below
- study system: UniProtKB O14920
- Sequence (O14920 whole entry, species assumed): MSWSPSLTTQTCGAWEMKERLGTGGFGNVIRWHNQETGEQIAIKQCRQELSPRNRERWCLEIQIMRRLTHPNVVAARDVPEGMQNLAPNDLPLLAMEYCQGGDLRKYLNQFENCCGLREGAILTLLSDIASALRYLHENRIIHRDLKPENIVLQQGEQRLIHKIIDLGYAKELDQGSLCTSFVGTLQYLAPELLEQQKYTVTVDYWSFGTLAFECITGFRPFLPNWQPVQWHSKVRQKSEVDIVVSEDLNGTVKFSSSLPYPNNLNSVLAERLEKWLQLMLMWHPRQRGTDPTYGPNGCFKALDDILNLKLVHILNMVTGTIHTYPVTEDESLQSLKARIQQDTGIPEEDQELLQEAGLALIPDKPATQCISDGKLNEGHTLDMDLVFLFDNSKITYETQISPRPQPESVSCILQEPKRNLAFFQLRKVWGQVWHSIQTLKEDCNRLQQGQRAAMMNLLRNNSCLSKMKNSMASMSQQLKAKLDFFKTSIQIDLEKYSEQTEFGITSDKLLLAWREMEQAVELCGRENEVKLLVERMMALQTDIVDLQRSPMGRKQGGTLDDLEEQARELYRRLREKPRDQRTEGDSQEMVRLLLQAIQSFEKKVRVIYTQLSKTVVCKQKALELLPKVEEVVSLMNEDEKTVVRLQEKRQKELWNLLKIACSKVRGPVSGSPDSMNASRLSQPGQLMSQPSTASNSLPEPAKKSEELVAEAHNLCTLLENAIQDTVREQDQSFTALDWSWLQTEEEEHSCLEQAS
- assay method text: Kinase profiling IKKb
- Type: biochemical
- measurement context: 100 micromolar inhibitor concentration; 100 is no change; read-out: residual kinase activity, IKKb
measure: remaining activity at 100 µM (%)

molecule	study system	unit annotation	assay result
CC(=O)Nc1nc2ccc(O)cc2s1 [Compound 01-71]	UniProtKB O14920	%	63
CC(=O)Nc1nc2ccc(C(F)(F)F)cc2s1 [Compound 01-90]	UniProtKB O14920	%	75
CC(=O)Nc1nc2cc(F)ccc2s1 [Compound 03-77]	UniProtKB O14920	%	61
CC(=O)Nc1nc2ccc(C#N)cc2s1 [Compound 01-94]	UniProtKB O14920	%	58
COc1ccc2sc(NC(C)=O)nc2c1 [Compound 03-21]	UniProtKB O14920	%	98
CC(=O)Nc1nc2cc(C(F)(F)F)ccc2s1 [Compound 03-73]	UniProtKB O14920	%	94

====

- study system: CSK (Homo sapiens, UniProt P41240)
- Sequence (P41240 whole entry, species assumed): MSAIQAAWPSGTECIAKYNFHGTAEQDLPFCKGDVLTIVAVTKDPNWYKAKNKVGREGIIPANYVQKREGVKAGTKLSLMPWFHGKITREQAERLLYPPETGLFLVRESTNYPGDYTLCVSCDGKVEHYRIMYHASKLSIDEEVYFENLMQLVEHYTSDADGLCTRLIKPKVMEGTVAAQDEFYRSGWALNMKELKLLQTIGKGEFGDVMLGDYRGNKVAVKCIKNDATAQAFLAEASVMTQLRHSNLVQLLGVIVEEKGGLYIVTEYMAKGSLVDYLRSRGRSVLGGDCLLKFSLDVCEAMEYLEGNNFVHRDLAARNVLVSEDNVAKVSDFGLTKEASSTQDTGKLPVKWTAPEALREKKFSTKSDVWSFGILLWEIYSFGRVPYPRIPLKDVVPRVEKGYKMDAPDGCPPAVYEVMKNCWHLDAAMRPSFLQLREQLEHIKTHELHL
- assay method text: Kinase profiling CSK
- Format: biochemical
- measurement context: 100 micromolar inhibitor concentration; 100 is no change
measure: residual kinase activity, CSK

smiles input	measure	assay result
O=C(Nc1nc2cc(O)ccc2s1)c1ccccn1	residual kinase activity, CSK	95
O=C(Nc1nc2ccc(O)cc2s1)c1ccccn1	residual kinase activity, CSK	101
CC(=O)Nc1nc2cc(C)ccc2s1	residual kinase activity, CSK	101
O=C(Nc1nc2ccc(O)cc2s1)c1ccncc1	residual kinase activity, CSK	89
O=C(Nc1nc2cc(O)ccc2s1)c1ccncc1	residual kinase activity, CSK	94
O=C(Nc1nc2cc(O)ccc2s1)c1cccnc1	residual kinase activity, CSK	88
CC(=O)Nc1nc2ccccc2s1	residual kinase activity, CSK	83
O=C(Nc1nc2ccc(O)cc2s1)c1ccccc1	residual kinase activity, CSK	69
O=C(Nc1nc2ccc(O)cc2s1)c1cccnc1	residual kinase activity, CSK	83

====

# residual kinase activity, MELK values compiled below
- study system: MELK (Homo sapiens)
- Sequence (Q14680 whole entry, species assumed): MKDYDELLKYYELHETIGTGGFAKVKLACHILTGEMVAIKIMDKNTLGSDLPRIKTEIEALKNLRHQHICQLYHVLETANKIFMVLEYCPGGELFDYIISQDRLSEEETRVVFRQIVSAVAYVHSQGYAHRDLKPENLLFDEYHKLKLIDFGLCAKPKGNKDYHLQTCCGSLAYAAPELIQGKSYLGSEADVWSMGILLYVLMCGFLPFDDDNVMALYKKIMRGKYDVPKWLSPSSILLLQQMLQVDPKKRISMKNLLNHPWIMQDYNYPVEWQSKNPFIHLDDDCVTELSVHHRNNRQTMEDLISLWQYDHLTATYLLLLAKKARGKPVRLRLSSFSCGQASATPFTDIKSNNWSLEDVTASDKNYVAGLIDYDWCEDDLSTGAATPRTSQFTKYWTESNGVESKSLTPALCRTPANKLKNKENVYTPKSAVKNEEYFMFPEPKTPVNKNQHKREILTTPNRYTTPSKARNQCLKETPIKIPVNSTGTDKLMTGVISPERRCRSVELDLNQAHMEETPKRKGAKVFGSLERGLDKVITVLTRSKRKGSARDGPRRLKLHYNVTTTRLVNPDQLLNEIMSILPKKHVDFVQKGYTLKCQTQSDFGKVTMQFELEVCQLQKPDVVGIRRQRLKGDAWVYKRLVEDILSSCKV
- assay method text: Kinase profiling MELK
- Type: biochemical
- measurement context: 100 micromolar inhibitor concentration; 100 is no change

smiles input	residual kinase activity, MELK
O=C(Nc1nc2ccc(O)cc2s1)c1cccnc1	29
CC(=O)Nc1nc2ccccc2s1	83
O=C(Nc1nc2cc(O)ccc2s1)c1ccccn1	22
O=C(Nc1nc2ccc(O)cc2s1)c1ccncc1	22
CC(=O)Nc1nc2cc(C)ccc2s1	58
O=C(Nc1nc2cc(O)ccc2s1)c1ccncc1	48

====

- study system: PAK4 (Homo sapiens, UniProt O96013)
- Sequence (O96013 whole entry, species assumed): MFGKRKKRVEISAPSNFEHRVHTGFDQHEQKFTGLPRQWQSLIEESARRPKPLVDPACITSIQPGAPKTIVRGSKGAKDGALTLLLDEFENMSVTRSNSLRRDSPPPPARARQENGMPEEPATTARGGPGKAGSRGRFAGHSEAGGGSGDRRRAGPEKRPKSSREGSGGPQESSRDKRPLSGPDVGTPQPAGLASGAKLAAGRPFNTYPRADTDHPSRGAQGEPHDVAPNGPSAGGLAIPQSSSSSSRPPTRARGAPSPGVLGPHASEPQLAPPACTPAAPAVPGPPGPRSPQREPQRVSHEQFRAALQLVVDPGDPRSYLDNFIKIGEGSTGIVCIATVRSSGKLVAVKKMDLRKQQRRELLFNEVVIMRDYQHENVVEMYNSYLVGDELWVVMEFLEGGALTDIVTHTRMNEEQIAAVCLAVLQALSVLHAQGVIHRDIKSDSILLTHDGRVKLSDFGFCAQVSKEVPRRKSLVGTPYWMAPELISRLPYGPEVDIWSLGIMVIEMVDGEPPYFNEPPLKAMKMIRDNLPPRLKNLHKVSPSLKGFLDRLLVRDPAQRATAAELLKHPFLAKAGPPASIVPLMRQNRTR
- assay method text: Kinase profiling PAK4
- Assay type: biochemical
- measurement context: 100 micromolar inhibitor concentration; 100 is no change
Cut-off 90 on residual kinase activity, PAK4, inclusive. At or above means y; below means n.

smiles input	class label
CC(=O)Nc1nc2ccc(F)cc2s1	n
CC(=O)Nc1nc2cc(C)ccc2s1	y
O=C(Nc1nc2ccc(O)cc2s1)c1cccnc1	n
O=C(Nc1nc2ccc(C(F)(F)F)cc2s1)c1ccccc1	y
O=C(Nc1nc2ccc(O)cc2s1)c1ccccn1	n
O=C(Nc1nc2cc(O)ccc2s1)c1ccccc1	n
COc1ccc2sc(NC(=O)c3cccc(C(N)=O)c3)nc2c1	y
O=C(Nc1nc2cc(O)ccc2s1)c1ccccn1	y
COC(=O)c1cccc(C(=O)Nc2nc3ccc(F)cc3s2)c1	n

====

- study system: UniProtKB Q02763
- Sequence (Q02763 23-1124, species assumed): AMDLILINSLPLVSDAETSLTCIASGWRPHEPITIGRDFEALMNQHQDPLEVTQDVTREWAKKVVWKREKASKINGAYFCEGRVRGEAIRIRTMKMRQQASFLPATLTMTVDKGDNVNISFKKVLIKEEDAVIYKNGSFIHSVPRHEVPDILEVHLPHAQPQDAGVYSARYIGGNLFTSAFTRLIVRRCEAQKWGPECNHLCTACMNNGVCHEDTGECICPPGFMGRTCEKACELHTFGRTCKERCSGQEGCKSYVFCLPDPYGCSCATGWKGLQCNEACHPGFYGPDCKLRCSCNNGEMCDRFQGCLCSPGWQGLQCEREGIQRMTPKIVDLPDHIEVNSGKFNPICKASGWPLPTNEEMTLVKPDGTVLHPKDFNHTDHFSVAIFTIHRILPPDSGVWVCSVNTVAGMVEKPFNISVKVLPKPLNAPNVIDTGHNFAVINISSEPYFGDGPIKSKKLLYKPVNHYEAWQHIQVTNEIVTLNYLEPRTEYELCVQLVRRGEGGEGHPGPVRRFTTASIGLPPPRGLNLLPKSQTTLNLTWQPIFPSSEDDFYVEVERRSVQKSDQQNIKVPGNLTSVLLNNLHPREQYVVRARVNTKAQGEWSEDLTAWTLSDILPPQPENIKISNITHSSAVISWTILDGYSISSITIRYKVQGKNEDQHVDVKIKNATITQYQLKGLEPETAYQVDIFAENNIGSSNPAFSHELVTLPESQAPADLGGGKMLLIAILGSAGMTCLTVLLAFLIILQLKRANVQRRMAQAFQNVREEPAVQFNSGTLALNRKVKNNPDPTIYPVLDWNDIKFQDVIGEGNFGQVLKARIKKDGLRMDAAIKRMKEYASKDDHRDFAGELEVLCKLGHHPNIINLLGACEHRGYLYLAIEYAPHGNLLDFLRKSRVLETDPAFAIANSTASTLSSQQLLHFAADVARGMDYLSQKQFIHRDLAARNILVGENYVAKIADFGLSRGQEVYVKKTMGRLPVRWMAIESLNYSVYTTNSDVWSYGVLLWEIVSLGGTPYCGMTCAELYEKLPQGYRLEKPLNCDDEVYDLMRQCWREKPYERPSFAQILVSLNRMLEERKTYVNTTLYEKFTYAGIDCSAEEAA
- assay method text: Kinase profiling TIE2
- Format: biochemical
- measurement context: 100 micromolar inhibitor concentration; 100 is no change; read-out: residual kinase activity, TIE2

compound	unit annotation	remaining activity at 100 µM
COc1ccc2sc(NC(C)=O)nc2c1 [Compound 03-21]	%	91
CC(=O)Nc1nc2cc(C(F)(F)F)ccc2s1 [Compound 03-73]	%	92
CC(=O)Nc1nc2ccc(O)cc2s1 [Compound 01-71]	%	65
CC(=O)Nc1nc2ccc(C#N)cc2s1 [Compound 01-94]	%	85
CC(=O)Nc1nc2cc(F)ccc2s1 [Compound 03-77]	%	112
CC(=O)Nc1nc2ccc(C(F)(F)F)cc2s1 [Compound 01-90]	%	60

====

- study system: IR (Homo sapiens, UniProt P06213)
- assay method text: Kinase profiling IR
- Assay type: biochemical
- measurement context: 100 micromolar inhibitor concentration; 100 is no change; read-out: residual kinase activity, IR
# remaining activity at 100 µM values compiled below

smiles input	study system	remaining activity at 100 µM
COc1ccc2sc(NC(C)=O)nc2c1	IR (Homo sapiens, UniProt P06213)	109%
CC(=O)Nc1nc2cc(F)ccc2s1	IR (Homo sapiens, UniProt P06213)	87%
CC(=O)Nc1nc2ccc(C#N)cc2s1	IR (Homo sapiens, UniProt P06213)	81%
CC(=O)Nc1nc2ccc(C(F)(F)F)cc2s1	IR (Homo sapiens, UniProt P06213)	84%
CC(=O)Nc1nc2cc(C(F)(F)F)ccc2s1	IR (Homo sapiens, UniProt P06213)	102%
CC(=O)Nc1nc2ccc(O)cc2s1	IR (Homo sapiens, UniProt P06213)	35%

Data origin, for the record: patent US10231954B2
